Property: JAK2/JAK1; scope: individual molecules
- Test system: human JAK1 (a.a. 837-1142) catalytic domain
- TEST_SUMMARY: In vitro JAK kinase assay (HTRF), JAK1
- Type: biochemical
- MEASUREMENT_PARAMETERS: ratio of IC50 values at 1 mM ATP
Counter-ions that a name gives are not always drawn.

In: Record Cc1n[nH]cc1-c1cn(C2(CC#N)CN(c3cnc(C(=O)NC(C)C)cn3)C2)nc1C [Example 6, trifluoroacetate] : what is its JAK2/JAK1 with human JAK1 (a.a. 837-1142) catalytic domain?
Out: >10

In: Record Cc1n[nH]cc1-c1cnn(C2(CC#N)CN(c3cnc(C(=O)NC(C)C)cn3)C2)c1 [Example 2, trifluoroacetate] : what is its JAK2/JAK1 with human JAK1 (a.a. 837-1142) catalytic domain?
Out: >10

Further cases:
In: Record C[C@H](NC(=O)c1cc(F)c(N2CC(CC#N)(n3cc(-c4cn[nH]c4)cn3)C2)cc1F)C(F)(F)F [Example 5, trifluoroacetate] : what is its JAK2/JAK1 with human JAK1 (a.a. 837-1142) catalytic domain?
Out: >10

In: Record Cc1n[nH]cc1-c1cnn(C2(CC#N)CN(c3ccc(C(=O)NC(C)C)cc3)C2)c1 [Example 3, trifluoroacetate] : what is its JAK2/JAK1 with human JAK1 (a.a. 837-1142) catalytic domain?
Out: >10

In: Record Cc1n[nH]cc1-c1cn(C2(CC#N)CN(c3cc(F)c(C(=O)N[C@@H](C)C(F)(F)F)cc3F)C2)nc1CO [Example 13] : what is its JAK2/JAK1 with human JAK1 (a.a. 837-1142) catalytic domain?
Out: >10

In: Record Cc1n[nH]c(C)c1-c1cnn(C2(CC#N)CN(c3cnc(C(=O)N[C@@H](C)C(F)(F)F)cn3)C2)c1 [Example 9, trifluoroacetate] : what is its JAK2/JAK1 with human JAK1 (a.a. 837-1142) catalytic domain?
Out: >10

In: Record Cc1[nH]ncc1-c1cnn(C2(CC#N)CN(c3cnc(C(=O)N[C@@H](C)C(F)(F)F)cn3)C2)c1 [Example 1, trifluoroacetate] : what is its JAK2/JAK1 with human JAK1 (a.a. 837-1142) catalytic domain?
Out: >10
